Values compiled from patent US10322110B2.

# Test system: Streptococcus pneumoniae (Chester, ATCC49619)
# experimental_protocol: broth microdilution MIC assay, Streptococcus pneumoniae
# Type: cell-based
# test_settings: MIC100 class score, 24 h
Readings of Antibacterial activity Streptococcus pneumoniae for the listed molecules
metric_name: Antibacterial activity Streptococcus pneumoniae

>  <molecule>
Cc1[nH]c(-c2ccc(-c3ccc(F)cc3)s2)nc1-c1ccccc1 [Compound 7]

>  <measured>
3 (MIC100 of 2-5 μg/ml)

$$$$
>  <molecule>
Cc1[nH]c(-c2ccc(-c3cccc(Cl)c3)s2)nc1-c1ccccc1 [Compound 12]

>  <measured>
3 (MIC100 of 2-5 μg/ml)

$$$$
>  <molecule>
Cc1[nH]c(-c2ccc(-c3ccccc3C(F)(F)F)o2)nc1-c1cccc(Cl)c1 [Compound 22]

>  <measured>
3 (MIC100 of 2-5 μg/ml)

$$$$
>  <molecule>
Cc1[nH]c(-c2ccc(-c3ccccc3)s2)nc1-c1ccccc1 [Compound 74]

>  <measured>
3 (MIC100 of 2-5 μg/ml)

$$$$
>  <molecule>
Cc1[nH]c(-c2ccc(-c3ccc(OC(F)(F)F)cc3Cl)o2)nc1-c1ccc(F)cc1 [Compound 51]

>  <measured>
3 (MIC100 of 2-5 μg/ml)

$$$$
>  <molecule>
Cc1nc(-c2ccc(-c3ccc(Cl)cc3Cl)o2)[nH]c1-c1ccc(F)cc1 [Compound 16]

>  <measured>
3 (MIC100 of 2-5 μg/ml)

$$$$
>  <molecule>
CCCc1nc(-c2ccc(-c3ccccc3C)o2)[nH]c1C [Compound 100]

>  <measured>
3 (MIC100 of 2-5 μg/ml)

$$$$
>  <molecule>
Cc1[nH]c(-c2cc(C)n(-c3ccc(F)cc3F)c2C)nc1-c1ccccc1 [Compound 9]

>  <measured>
2 (MIC100 of 6-10 μg/ml)

$$$$
>  <molecule>
CCCc1[nH]c(-c2ccc(-c3ccccc3[N+](=O)[O-])o2)nc1C [Compound 97]

>  <measured>
2 (MIC100 of 6-10 μg/ml)

$$$$

---

# System: Staphylococcus aureus MRSA (COL)
# experimental_protocol: broth microdilution MIC assay, Staphylococcus aureus MRSA (COL)
# Type: cell-based
# test_settings: Staphylococcus aureus, MRSA, 24 h, read-out: Antibacterial activity Staphylococcus aureus (MRSA)

>  <sample_smiles>
Cc1nc(-c2ccc(-c3ccc(O)cc3Cl)o2)[nH]c1-c1ccccc1

>  <MIC>
1 to 3 µg/mL

$$$$
>  <sample_smiles>
Cc1nc(-c2ccc(-c3ccc(N4CCN(C)CC4)cc3)o2)[nH]c1-c1ccccc1

>  <MIC>
20 to 50 µg/mL

$$$$
>  <sample_smiles>
Cc1nc(-c2ccc(-c3ccc4cc(O)ccc4c3)o2)[nH]c1-c1ccccc1

>  <MIC>
11 to 201 µg/mL

$$$$
>  <sample_smiles>
Cc1nc(-c2ccc(-c3cccc4cc[nH]c34)o2)[nH]c1-c1ccccc1

>  <MIC>
1 to 3 µg/mL

$$$$
>  <sample_smiles>
Cc1nc(-c2ccc(-c3ccc(O)c(Cl)c3)o2)[nH]c1-c1ccccc1

>  <MIC>
11 to 201 µg/mL

$$$$

---

# Test system: Streptococcus pneumoniae (Chester, ATCC49619)
# experimental_protocol: broth microdilution MIC assay, Streptococcus pneumoniae
# Assay type: cell-based
# test_settings: MIC100 class score, 24 h
metric_name: Antibacterial activity Streptococcus pneumoniae

>  <sample_smiles>
Cc1[nH]c(-c2ccc(-c3cccc(C(F)(F)F)c3)o2)nc1-c1ccc(F)cc1

>  <measured>
3 (MIC100 of 2-5 μg/ml)

$$$$
>  <sample_smiles>
Cc1ccc(-c2ncc(-c3nc(-c4ccccc4)c(C)[nH]3)s2)cc1

>  <measured>
3 (MIC100 of 2-5 μg/ml)

$$$$
>  <sample_smiles>
Cc1ccc(-c2ccc(-c3nc(-c4ccccc4)c(C)[nH]3)s2)cc1

>  <measured>
2 (MIC100 of 6-10 μg/ml)

$$$$
>  <sample_smiles>
FC(F)(F)Oc1ccccc1-c1ccc(-c2ncc(-c3ccccc3)[nH]2)o1

>  <measured>
3 (MIC100 of 2-5 μg/ml)

$$$$
>  <sample_smiles>
Cc1[nH]c(-c2csc(-c3ccc(F)cc3)n2)nc1-c1ccccc1

>  <measured>
3 (MIC100 of 2-5 μg/ml)

$$$$
>  <sample_smiles>
Cc1[nH]c(-c2ccc(-c3ccccc3OC(F)(F)F)o2)nc1-c1ccc(C(F)(F)F)cc1

>  <measured>
3 (MIC100 of 2-5 μg/ml)

$$$$
>  <sample_smiles>
Cc1[nH]c(-c2ccn(-c3ccccc3C(F)(F)F)c2)nc1-c1ccccc1

>  <measured>
2 (MIC100 of 6-10 μg/ml)

$$$$
>  <sample_smiles>
Cc1[nH]c(-c2csc(-c3cccc(Br)c3)n2)nc1-c1ccccc1

>  <measured>
3 (MIC100 of 2-5 μg/ml)

$$$$
>  <sample_smiles>
Cc1nc(-c2ccc(-c3ccc(F)cc3F)o2)[nH]c1-c1ccc(O)cc1

>  <measured>
3 (MIC100 of 2-5 μg/ml)

$$$$
>  <sample_smiles>
Cc1[nH]c(-c2coc(-c3ccccc3C(F)(F)F)c2)nc1-c1ccccc1

>  <measured>
2 (MIC100 of 6-10 μg/ml)

$$$$
